assayed_target: T1, HLA-A*02:01 on T2 cells alone (no peptide added) (human)
T1 construct: TAP-deficient T2 cells without pulsed peptide; negative control target, and the HLA molecule whose stabilisation by peptides is read in the T2 stabilization assay; also called HLA-A*02 molecule; HLA-A2 molecule
assay_protocol: flow cytometry, phage on T2 cells
measure: binding result

binder: EXT017-26 scFv phage clone (scFv, also called phage clone #26) scFv: SYVLTQPPSVSVAPGQTARITCGGTDIRRKTVHWYQQKPGLAPVLVLYDDSDRPSGIPERFSGSNSGNTATLTISRVEGGDEADYYCQVWDNDNDHYVFGPGTKVTVLGSRGGGGSGGGGSGGGGSLEMAEVQLVQSGAEVKKPGASVKVSCKASGYTFTNYYIHWVRQTPGEGLEWMGIIRPSGGNTNYAQKFQGRVTMTRDTSTRTVYMELSSLRSEDTAVYYCARSWDTFSDEWGQGTLVTVSSTSGQAGQHHHHHHGAYPYDVPDYAS
measure: binding result
test_result: no binding

binder: EXT017-32 scFv phage clone (scFv, also called EXT017-32 phage; phage clone #32) scFv: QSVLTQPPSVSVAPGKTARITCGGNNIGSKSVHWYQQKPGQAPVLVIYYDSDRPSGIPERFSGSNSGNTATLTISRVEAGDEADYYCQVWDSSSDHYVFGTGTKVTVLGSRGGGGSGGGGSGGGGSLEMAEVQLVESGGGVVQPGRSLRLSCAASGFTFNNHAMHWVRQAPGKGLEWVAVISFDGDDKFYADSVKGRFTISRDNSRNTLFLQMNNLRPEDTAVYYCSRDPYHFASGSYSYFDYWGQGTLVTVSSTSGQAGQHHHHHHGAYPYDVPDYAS
measure: binding result
test_result: no binding

All values here come from patent US20190284262A1.
